Property: Kd; scope: individual binders
- subjectOfTest: T1, human PD-1 ECD/Fc fusion protein (human)
- T1 construct: also called huPD-1/Fc; HuPD-1 ECD/Fc
- measurementProtocol: SPR Biacore, mAb captured, huPD-1/Fc analyte
Form entry: value (nM) — number only.

Return reported Kd; argument: mAb715 (antibody, V domains shown, murine hybridoma anti-PD-1 mAb) VH: EVMLVESGGGLLKPGGSLKLSCAASGFTFSSYAMSWVRQTPEKRLEWVATISGGGRDTYYPDSVKGRFTISRDNAKNTLYLQMTSLRSEDTAFYYCAGQGGTYLFASWGQGTLVTVSA VL: DIVMTQSHKFMSTSVGDSVTITCKASQDVNTAVAWYQQKPGQPPKVLIYWASTRHTGVPDRFTGSGSGTDYTLTISSVQAEDLALYYCQQHYTTPYTFGGGTKLEIK
1.5

Return reported Kd; argument: mAb703 (antibody, V domains shown, murine hybridoma anti-PD-1 mAb) VH: DVQLQESGPGLVKPSQSLSLTCSVTGYSITTGYYWNWIRQFPGNKLEWMGYMSYDGNNNYNPSLKNRISITRDTSKNQFLLRLNSVTTEDTATYFCARDRGTTILGGTMDYWGQGTSVTVS VL: SIVMTQTPKFLFVSAGDRVTIACKASQSVSNDVAWYQQKPGQSPKLLIYYAFYRYTGVPDRFTGSGYGTDFTFTISTVQAEDLAVYFCQQDYSSPWTFGGGTKLEIK
2.45

Return reported Kd; argument: mAb701 (antibody, V domains shown, murine hybridoma anti-PD-1 mAb) VH: EVLLVESGGGLVKPGGSLKLSCAASGFTFSSYMMSWIRQTPERRLEWVASMSGGGRDTYYPDSVKGRFTISRDNAKNTLYLQMSSLRSEDTALYYCARRGTYAMDYWGQGTSVTVSS VL: DIQMTQSPASQSASLGESVTITCLASQTIGTWLTWYQQKPGKSPQLLIYAATSLADGVPSRFSGSGSGTKFSFKISSLQAEDFVSYYCQQLYSTPWTFGGGTKLEIK
6.81

Return reported Kd; argument: mAb714 (antibody, V domains shown, murine hybridoma anti-PD-1 mAb) VH: EVHLQQSGPELVKPGASVKIFCKASGYTFTDNNVEWVKQSHGKSLEWIGDINPNNGDTLYSQYFKDKATLTVDKSSTTAYMELRSLTSEDTGLYYCARGKSDQFDYWGQGTTLTVSS VL: DIQMTQSPASQSASLGESVTITCLASQTIGTWLAWYQQKPGKSPQLLIYAATSLADGVPSRFSGSGSGTKFSFKISSLQGEDFVSYYCQQLYSSPWTFGGGTKLEIK
2.11

Return reported Kd; argument: mAb719 (antibody, V domains shown, murine hybridoma anti-PD-1 mAb) VH: EVKLVESGGGLVKPGGSLKLSCTASGFSFSSHLMSWVRQTPEKRLEWVAAISGGGADTYYPDSVKGRFTISRDNAKNTLYLQMRSLRSEDTALYYCTRQILAFDSWGQGTTLTVSS VL: DIQMNQSPSSLSVSLGDTITITCHASQNIYVWLNWYQQKPGNIPKLLIYKASNLHTGVPSRFSGGGSGTGFTLTISSLQPEDIATYYCQQGQSYPWTFGGGTKLEIK
3

Return reported Kd; argument: mAb713 (antibody, V domains shown, murine hybridoma anti-PD-1 mAb) VH: EVKLVESGGGLVKPGGSLELSCAASGFTSSDYGMHWVRQAPEKGLEWVAYISSGSYTIYYADTVKGRFTISRDNAKNTLFLQMTSLRSEDTAMYYCAKRGGSSHVNVMDYWGQGTSVTVSS VL: DIQMTQSSSYLSVSLGGRVTITCKASDHINNWLAWYQQKPGNAPRLLISGATSLETGVPSRFSGSGSGKDYTLSITSLQTEDVATYYCQQYWSPPYTFGGGTKLEIK
1.96
